B1: LCOR (parent)
chain: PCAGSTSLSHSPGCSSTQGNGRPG

Variants of: B1
Test: protein stability index of a GFP-peptide fusion (GPS, HEK-293T) (PSI 1-6); higher = more stable;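 further: lentivirally expressed fusions sorted by FACS into six bins by GFP to DsRed ratio, PSI derived from sequencing read proportions per bin multiplied by bin number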
Conditions: c terminus: a fixed tail appended
This listing pairs variants with measured protein stability index.

Reference set, count: 3
{"mutation string": "C14Y", "attribute measured": "protein stability index", "value": 3.83}
{"mutation string": "S11Q", "attribute measured": "protein stability index", "value": 3.27}
{"mutation string": "P1K", "attribute measured": "protein stability index", "value": 4.35}

Task: What value of protein stability index has been reported for the following variant? `S15L`
Output: 3.36

Task: What value of protein stability index has been reported for the following variant? `G19T`
Output: 3.24

Task: What value of protein stability index has been reported for the following variant? `T6Y`
Output: 3.39

Task: What value of protein stability index has been reported for the following variant? `S9T`
Output: 3

Task: What value of protein stability index has been reported for the following variant? `S5G`
Output: 4.2
